target.entity: Peroxisome proliferator-activated receptor alpha (Homo sapiens)
Sequence (Q07869 whole entry): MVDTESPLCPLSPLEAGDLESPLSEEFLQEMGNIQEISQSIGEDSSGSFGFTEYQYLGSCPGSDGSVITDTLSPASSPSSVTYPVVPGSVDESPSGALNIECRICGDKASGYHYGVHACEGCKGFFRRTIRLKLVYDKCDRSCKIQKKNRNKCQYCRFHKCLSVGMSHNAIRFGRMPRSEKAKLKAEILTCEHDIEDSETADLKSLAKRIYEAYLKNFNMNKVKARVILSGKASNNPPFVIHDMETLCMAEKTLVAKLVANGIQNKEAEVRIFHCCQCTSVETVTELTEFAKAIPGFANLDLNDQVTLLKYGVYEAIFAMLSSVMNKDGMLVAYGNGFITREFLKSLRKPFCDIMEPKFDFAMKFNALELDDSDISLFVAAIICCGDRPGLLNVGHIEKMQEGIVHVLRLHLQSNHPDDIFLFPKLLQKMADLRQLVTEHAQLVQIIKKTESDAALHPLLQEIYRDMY
observable: EC50

{"compound.string": "COc1cccc(-c2ccc(NC(=O)C3=C(C(=O)O)CCC3)c(F)c2)c1", "recorded.measurement": "> 10 µM"}

----------
protocol.details: in vivo
test.context: Sprague-Dawley, rat, po, 5 mg/kg

{"compound.string": "C#CCOc1cccc(-c2ccc(NC(=O)C3=C(C(=O)O)CCC3)c(F)c2)c1", "AUC at 8 h": "290 µM·h"}

----------
target.entity: Nuclear receptor subfamily 4immunitygroup A member 1 (Homo sapiens)
Sequence (P22736 whole entry): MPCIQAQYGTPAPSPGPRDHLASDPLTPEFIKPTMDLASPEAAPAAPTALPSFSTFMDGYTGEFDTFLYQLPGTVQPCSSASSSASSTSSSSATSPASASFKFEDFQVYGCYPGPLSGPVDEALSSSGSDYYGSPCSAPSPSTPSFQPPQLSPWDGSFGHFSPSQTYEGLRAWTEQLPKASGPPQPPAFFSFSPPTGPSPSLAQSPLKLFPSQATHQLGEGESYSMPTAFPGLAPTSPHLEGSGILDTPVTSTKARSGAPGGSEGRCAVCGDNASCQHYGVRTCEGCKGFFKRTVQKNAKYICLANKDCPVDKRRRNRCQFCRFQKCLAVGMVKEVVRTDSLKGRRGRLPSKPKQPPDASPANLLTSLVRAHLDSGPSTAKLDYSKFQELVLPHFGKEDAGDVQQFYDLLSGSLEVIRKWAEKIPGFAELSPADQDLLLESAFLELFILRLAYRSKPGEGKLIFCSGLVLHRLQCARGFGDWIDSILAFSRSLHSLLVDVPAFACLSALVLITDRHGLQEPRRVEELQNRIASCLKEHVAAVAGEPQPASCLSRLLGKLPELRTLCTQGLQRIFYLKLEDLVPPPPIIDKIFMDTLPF
protocol.details: cell-based
Description: Agonist activity at Nur77 (unknown origin) by Gal4 hybrid reporter gene assay

{"compound.string": "C#CCOc1cccc(-c2ccc(NC(=O)C3=C(C(=O)O)CCC3)c(F)c2)c1", "EC50 (nM)": 1400}
